Overview of recorded pIC50 for various compounds
target: phosphorylated EGFR (pEGFR) (Homo sapiens (Human), UniProt P00533); experiment: Detection of phosphorylated EGFR (pEGFR) by AlphaLISA in A431 cells; settings: A431 cells (10% FBS), 4 hours incubation, EGF 30 ng/mL for 10 minutes
Sequence (P00533 25-1210): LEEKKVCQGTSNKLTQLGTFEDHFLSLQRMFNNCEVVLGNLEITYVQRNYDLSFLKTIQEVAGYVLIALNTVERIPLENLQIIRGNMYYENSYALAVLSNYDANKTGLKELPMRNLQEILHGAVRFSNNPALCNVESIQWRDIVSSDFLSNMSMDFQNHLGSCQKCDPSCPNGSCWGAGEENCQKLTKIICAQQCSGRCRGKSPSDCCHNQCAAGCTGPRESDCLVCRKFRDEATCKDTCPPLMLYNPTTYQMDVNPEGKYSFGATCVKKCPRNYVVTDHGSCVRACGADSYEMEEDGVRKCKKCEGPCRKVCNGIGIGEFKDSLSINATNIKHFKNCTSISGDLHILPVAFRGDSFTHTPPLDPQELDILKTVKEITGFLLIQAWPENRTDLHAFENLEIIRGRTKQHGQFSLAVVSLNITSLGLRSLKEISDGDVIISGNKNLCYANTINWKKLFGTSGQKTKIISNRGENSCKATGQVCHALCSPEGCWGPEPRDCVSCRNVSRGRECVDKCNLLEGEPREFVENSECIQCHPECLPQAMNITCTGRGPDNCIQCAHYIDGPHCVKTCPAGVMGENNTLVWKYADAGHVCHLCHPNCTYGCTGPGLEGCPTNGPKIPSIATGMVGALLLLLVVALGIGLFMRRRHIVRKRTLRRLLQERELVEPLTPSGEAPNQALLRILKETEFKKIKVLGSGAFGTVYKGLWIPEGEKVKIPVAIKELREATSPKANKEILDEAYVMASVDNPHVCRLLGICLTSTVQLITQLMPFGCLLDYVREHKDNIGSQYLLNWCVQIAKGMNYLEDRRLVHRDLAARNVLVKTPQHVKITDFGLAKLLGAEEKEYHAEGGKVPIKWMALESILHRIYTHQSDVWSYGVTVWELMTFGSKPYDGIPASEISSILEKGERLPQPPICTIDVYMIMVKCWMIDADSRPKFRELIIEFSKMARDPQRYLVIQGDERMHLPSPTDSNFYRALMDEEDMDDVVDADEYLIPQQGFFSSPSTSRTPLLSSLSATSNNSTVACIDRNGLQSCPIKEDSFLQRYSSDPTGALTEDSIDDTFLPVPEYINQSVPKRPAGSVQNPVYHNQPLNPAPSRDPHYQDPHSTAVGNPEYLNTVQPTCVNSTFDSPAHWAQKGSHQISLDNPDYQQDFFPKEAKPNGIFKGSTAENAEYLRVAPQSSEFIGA
pIC50: −log10 of the molar value.
MEASURED PROPERTY: pIC50

{"COMPOUND": "Cc1cc(Nc2ncnc3cc4c(nc23)N2CCCN(C(=O)/C=C/CN(C)C)C(CO4)C2)ccc1Oc1ccn2ncnc2c1 (single isomer, unassigned) [Example S55, Enantiomer 1]", "RELATION": "<", "RECORDED MEASUREMENT": 5.00}
{"COMPOUND": "CC#CC(=O)N1CCN2CC1COc1cc3ncnc(Nc4ccc(Oc5ccn6ncnc6c5)c(C)c4)c3cc12 (stereo in doubt) [Compound 17]", "RELATION": "<", "RECORDED MEASUREMENT": 5.00}
{"COMPOUND": "[2H]C([2H])([2H])N(C([2H])([2H])[2H])C([2H])([2H])/C=C/C(=O)N1CCN2CC1COc1cc3ncnc(Nc4cc(C)c(Oc5ccn6ncnc6c5)cc4F)c3nc12 (stereo in doubt)", "RELATION": "=", "RECORDED MEASUREMENT": 5.86}
{"COMPOUND": "CN(C)C/C=C/C(=O)N1CCN2CC1COc1cc3ncnc(Nc4ccc(Oc5ccn6ncnc6c5)cc4)c3nc12 (stereo in doubt)", "RELATION": "<", "RECORDED MEASUREMENT": 5.00}
{"COMPOUND": "CCc1ccc(Oc2ccc(Nc3ncnc4cc5c(nc34)N3CCN(C(=O)/C=C/CN(C)C)C(CO5)C3)cc2C)cn1 (stereo in doubt)", "RELATION": "=", "RECORDED MEASUREMENT": 5.51}

Value source: patent US20230382923A1
